biological target: T1, human fibroblast activation protein (FAP) on WI-38 fibroblasts (human, UniProt Q12884 1-760); assay: competitive FACS, WI-38 cells, Cy5-labeled peptide as competitor
T1 construct: FAP-expressing human WI-38 fibroblasts (ECACC)
Numbered stars: 1 amine (or outer) side, 2 acyl side, 3 side chain; on linkers, the order of the positions; unused ones are H or OH. Bridge positions count the residues as written; N and C are the ends. Square brackets hold non-standard residues; d marks the D form. Primed or numbered codes have the meaning given here. * marks the point of attachment. tMeBn(DOTA-PP) = 1,3,5-trimethylbenzylidene, two thioethers to Cys, third CH2 bound to one N of piperazine whose other N bears DOTA, O=C(O)CN1CCN(CC(=O)O)CCN(CC(=O)N2CCN(Cc3cc(C[*:1])cc(C[*:2])c3)CC2)CCN(CC(=O)O)CC1; Ttds″ = 1,13-diamino-4,7,10-trioxatridecan-succinamic acid spacer, O=C(CCC(=O)[*:2])NCCCOCCOCCOCCCN[*:1]; TBMB(SCH2CH2NH-DOTA) = O=C(O)CN1CCN(CC(=O)O)CCN(CC(=O)NCCSCc2cc(C[*:1])cc(C[*:2])c2)CCN(CC(=O)O)CC1; Ttds = 1,13-diamino-4,7,10-trioxatridecan-succinamic acid, O=C(CCC(=O)[*:2])NCCCOCCOCCOCCCN[*:1]; N4Ac = 6-Carboxy-1,4,8,11-tetraazaundecane, an N4-chelator, NCCNCC(CNCCN)C(=O)*; DOTA = O=C(O)CN1CCN(CC(=O)O)CCN(CC(=O)*)CCN(CC(=O)O)CC1; mXylylene = c1cc(C[*:1])cc(C[*:2])c1; Nle = CCCC[C@H](N)C(=O)O; Hexanoyl = CCCCCC(=O)*; Ahx = NCCCCCC(=O)O
Give measured pIC50 Category (FACS) for each item. Keep answers brief.

Exam item: I am curious: what pIC50 Category (FACS) value has been reported for Hexanoyl-CPPTQFCD[Ttds″]K(DOTA)-NH2 (linker 1-7 via TBMB(SCH2CH2NH-DOTA); not fully specified (residue 1); printed as Hex-[Cys(tMeBn(DOTA-AET))-Pro-Pro-Thr-Gln-Phe-Cys]-Asp-Ttds-Lys(DOTA)-NH2, also called 3BP-4391) [Hex-[Cys(tMeBn(DOTA-AET))-Pro-Pro-Thr-Gln-Phe-Cys]-Asp-Ttds-Lys(DOTA)-NH2] ?
Marked response: > 8 pIC50

Exam item: Look up pIC50 Category (FACS): Hexanoyl-CPPAAFCD-NH2 (linker 1-7 via tMeBn(DOTA-PP); SMILES CCCCCC(=O)N[C@H]1CSCc2cc(cc(CN3CCN(C(=O)CN4CCN(CC(=O)O)CCN(CC(=O)O)CCN(CC(=O)O)CC4)CC3)c2)CSC[C@@H](C(=O)N[C@@H](CC(=O)O)C(N)=O)NC(=O)[C@H](Cc2ccccc2)NC(=O)[C@H](C)NC(=O)[C@H](C)NC(=O)[C@@H]2CCCN2C(=O)[C@@H]2CCCN2C1=O, also called 3BP-3746) [Hex-[Cys(tMeBn(DOTA-PP))-Pro-Pro-Ala-Ala-Phe-Cys]-Asp-NH2]
Marked response: ≤ 6 pIC50

Exam item: Recorded pIC50 Category (FACS) for N4Ac-[Ttds″][Nle]CPPTEFC-OH (linker 3-9 via mXylylene; SMILES CCCC[C@H](NC(=O)CCC(=O)NCCCOCCOCCOCCCNC(=O)C(CNCCN)CNCCN)C(=O)N[C@H]1CSCc2cccc(c2)CSC[C@@H](C(=O)O)NC(=O)[C@H](Cc2ccccc2)NC(=O)[C@H](CCC(=O)O)NC(=O)[C@H]([C@@H](C)O)NC(=O)[C@@H]2CCCN2C(=O)[C@@H]2CCCN2C1=O, also called 3BP-4161) [N4Ac-Ttds-Nle-[Cys-(3MeBn)-Pro-Pro-Thr-Glu-Phe-Cys]-OH] , please?
Marked response: > 8 pIC50

Exam item: I have this binder here, H-[Ahx][Ttds][Nle]CPPTQFCD-NH2 (linker 4-10 via mXylylene; SMILES CCCC[C@H](NC(=O)CCC(=O)NCCCOCCOCCOCCCNC(=O)CCCCCN)C(=O)N[C@H]1CSCc2cccc(c2)CSC[C@@H](C(=O)N[C@@H](CC(=O)O)C(N)=O)NC(=O)[C@H](Cc2ccccc2)NC(=O)[C@H](CCC(N)=O)NC(=O)[C@H]([C@@H](C)O)NC(=O)[C@@H]2CCCN2C(=O)[C@@H]2CCCN2C1=O, also called 3BP-3980) [H-Ahx-Ttds-Nle-[Cys-(3MeBn)-Pro-Pro-Thr-Gln-Phe-Cys]-Asp-NH2] , and I need its recorded pIC50 Category (FACS).
Marked response: > 8 pIC50

Exam item: Look up pIC50 Category (FACS) for this binder: Hexanoyl-CPPTQFCG-OH (linker 1-7 via tMeBn(InDOTA-AET); also: In complex (InDOTA), also called 3BP-3714) [Hex-[Cys(tMeBn(InDOTA-AET))-Pro-Pro-Thr-Gln-Phe-Cys]-Gly-OH]
Marked response: > 8 pIC50
